System: Dd2 (CQ^R) P. falciparum strain
assay_explanation: In vitro fluorescence (Sybr Green I) assay for IC50 against Dd2 strain
Format: cell-based
condition_description: Plasmodium falciparum, Erythrocyte; Dd2 (CQ^R) strain in infected red blood cells, 72 hour incubation; read-out: IC50-Dd2
The following ranges of IC50 define the classes used here: lower level (below 0.8 nM), middle level (0.8 nM to below 1 nM), upper level (1 nM or more)

>  <item_smiles>
FC(F)(F)c1ccc(N2CCN(CCCNc3ccnc4cc(Cl)ccc34)CC2)cc1

>  <classification>
lower level

$$$$
>  <item_smiles>
Clc1ccc2c(NCCCN3CCN(c4cccnc4)CC3)ccnc2c1

>  <classification>
upper level

$$$$
>  <item_smiles>
Cc1ccc(N2CCN(CCCNc3ccnc4cc(Cl)ccc34)CC2)cc1

>  <classification>
middle level

$$$$
>  <item_smiles>
O=[N+]([O-])c1cnc(N2CCN(CCCNc3ccnc4cc(Cl)ccc34)CC2)c([N+](=O)[O-])c1

>  <classification>
middle level

$$$$
>  <item_smiles>
COc1ccc(N2CCN(CCCNc3ccnc4cc(Cl)ccc34)CC2)cc1

>  <classification>
lower level

$$$$
>  <item_smiles>
O=[N+]([O-])c1ccc(N2CCN(CCCNc3ccnc4cc(Cl)ccc34)CC2)nc1

>  <classification>
lower level

$$$$
>  <item_smiles>
FC(F)(F)c1ccc(N2CCN(CCCNc3ccnc4cc(Cl)ccc34)CC2)nc1

>  <classification>
middle level

$$$$
>  <item_smiles>
Clc1ccc2c(NCCN3CCN(c4ccccn4)CC3)ccnc2c1

>  <classification>
upper level

$$$$
>  <item_smiles>
Clc1ccc2c(NCCCN3CCN(c4ccncc4)CC3)ccnc2c1

>  <classification>
upper level

$$$$
>  <item_smiles>
Clc1ccc2c(NCCCN3CCN(c4ccccn4)CC3)ccnc2c1

>  <classification>
upper level

$$$$

----------
We begin with a simple list: items and their reported IC50.
Test system: Dd2 (CQ^R) P. falciparum strain
assay_explanation: In vitro fluorescence (Sybr Green I) assay for IC50 against Dd2 strain
Format: cell-based
condition_description: Plasmodium falciparum, DD2, Erythrocyte, 72 h, read-out: IC50-Dd2
value_kind: IC50

>  <item_smiles>
Clc1ccc2c(NCCCN3CCN(c4ccccc4-c4ccccc4)CC3)ccnc2c1

>  <value_kind>
IC50

>  <recorded_result>
2.6 nM

$$$$
>  <item_smiles>
Nc1ccc(N2CCN(CCCNc3ccnc4cc(Cl)ccc34)CC2)cc1

>  <value_kind>
IC50

>  <recorded_result>
3.16 nM

$$$$
>  <item_smiles>
Clc1ccc2c(NCCCN3CCN(c4ccccc4)CC3)ccnc2c1

>  <value_kind>
IC50

>  <recorded_result>
< 2.5 nM

$$$$
>  <item_smiles>
Clc1ccc(N2CCN(CCCNc3ccnc4cc(Cl)ccc34)CC2)cc1

>  <value_kind>
IC50

>  <recorded_result>
0.33 nM

$$$$
>  <item_smiles>
O=[N+]([O-])c1ccc(N2CCN(CCCNc3ccnc4cc(Cl)ccc34)CC2)cc1

>  <value_kind>
IC50

>  <recorded_result>
1.14 nM

$$$$

----------
Tested on: mitogen-induced marine spleen lymphocytes
Format: cell-based
condition_description: LC50; mouse spleen lymphocytes, 72 hours incubation, then resazurin 24 hours
value_kind: Cytotoxicity

>  <item_smiles>
Clc1ccc2c(NCCCN3CCN(c4cccc(-c5ccccc5)c4)CC3)ccnc2c1

>  <recorded_result>
2100 nM

$$$$
>  <item_smiles>
Clc1ccc2c(NCCCN3CCN(c4ccccc4-c4ccccc4)CC3)ccnc2c1

>  <recorded_result>
1700 nM

$$$$
>  <item_smiles>
Clc1ccc2c(NCCCN3CCN(c4ccc(-c5ccccc5)cc4)CC3)ccnc2c1

>  <recorded_result>
2200 nM

$$$$
>  <item_smiles>
Clc1ccc2c(NCCCN3CCN(c4ccccn4)CC3)ccnc2c1

>  <recorded_result>
8600 nM

$$$$
>  <item_smiles>
Clc1ccc2c(NCCCN3CCN(c4ccccc4)CC3)ccnc2c1

>  <recorded_result>
6400 nM

$$$$

----------
Tested on: Dd2 (CQ^R) P. falciparum strain
assay_explanation: In vitro fluorescence (Sybr Green I) assay for IC50 against Dd2 strain
Format: cell-based
condition_description: Plasmodium falciparum, DD2, Erythrocyte, 72 h, read-out: IC50-Dd2
Procedure: This method employs fluorescent detection of the level of parasitemia in cultured red blood cells and can be automated for high-throughput screening of antimalarial RCQs. […] Samples are then incubated in the dark for a period of time (e.g., one hour), followed by measurement of levels of fluorescence. […] An in vitro fluorescence assay for determining IC50 of antimalarial drugs was performed as previously described by Smilkstein et al. (2004. Antimicrob. Agents Chemother. 48(5):1803-1806). […]
pIC50: −log10 of the molar value.
We begin with a simple list: items and their reported pIC50.

>  <compound>
Clc1ccc2c(NCCCN3CCN(c4cccc(-c5ccccc5)c4)CC3)ccnc2c1

>  <pIC50>
8.74

$$$$
>  <compound>
Clc1ccc2c(NCCCN3CCN(c4ccc(Cl)c(Cl)c4)CC3)ccnc2c1

>  <pIC50>
9.05

$$$$
>  <compound>
Clc1ccc2c(NCCCN3CCN(c4ccc(-c5ccccc5)cc4)CC3)ccnc2c1

>  <pIC50>
9.44

$$$$
>  <compound>
CCN(CC)CCCC(C)Nc1ccnc2cc(Cl)ccc12 (centres unmarked)

>  <pIC50>
6.99

$$$$
>  <compound>
O=[N+]([O-])c1ccc(N2CCN(CCCNc3ccnc4cc(Cl)ccc34)CC2)c([N+](=O)[O-])c1

>  <pIC50>
9.33

$$$$
